System: OVCAR-8
Measurement protocol: NCI tumour cell line growth inhibition, 48 h
The source made the active and inactive calls. Rule as the data show it: active = GI50 up to about 1.1 µM and inactive = higher.
Reply using exactly one outcome from t for active, f for inactive

Example entries and their recorded answers appear below.
>>> df
                                   compound  class
0  COc1cc(C(C)c2cc3c(cc2OCCCCCOc2cc4c(cc2C(C)c2cc(OC)c(OC)c(OC)c2)OCO4)OCO3)cc(OC)c1OC (stereo not given)      f
1  CCOc1ccc(NC(=O)CC2SC(Nc3ccc(C)cc3C)=NC2=O)cc1 (stereo not given)      f
2  CC1CNC(c2ccc(-c3nc(-c4ccc(C5=NC(C)CN5)cc4)nc(N(C)C)n3)cc2)=N1 (stereo not given)      f
3  COC(=O)C(C(=O)C(=O)Nc1nnc(S)[nH]1)c1csc(N)n1 (stereo not given)      f
4      CCOc1ccc(/N=C(/NC(=O)c2ccccc2)SC)cc1      f

**Query** Each compound tested received a call. Report the one for CNc1cccc(-c2cc(O)c3cc4c(cc3n2)OCO4)c1 .
**Result** t

**Query** Also check OCCOCn1nc(-c2ccccc2)nc1-c1cnccn1
**Result** f

**Query** Please answer likewise for N/N=C(\Nc1ccccc1)SCc1ccccc1
**Result** f

**Query** What would you report for O=[N+]([O-])c1ccc(/C=N/Nc2nnc3c4ccccc4c4ncccc4c3n2)o1 ?
**Result** f

**Query** What about O=C(O)C1(CC(CCCN2CCCCC2)c2ccccc2)CCCC1 (stereo not given) ?
**Result** f

----------
Tested on: SNB-78
Measurement protocol: NCI tumour cell line growth inhibition, 48 h
The source made the active and inactive calls. Cut-off read from the data, not from the text of the source: active = GI50 up to about 1.1 µM and inactive = higher.
Collected GI50 values appear next to each entry.

>>> df
                                   compound  target_entity  property       endpoint_value
0               Cc1csc(=S)n1OC(=O)NC1CCCCC1         SNB-78      GI50   97.7 µM (inactive)
1  COc1ccc(-c2onc(-c3c(C)cc(C)cc3C)c2C2=NCCCN2)cc1         SNB-78      GI50   35.1 µM (inactive)
2  [N-]=[N+]=Nc1ccc(CCN2CCN(c3cccc(C(F)(F)F)c3)CC2)cc1I         SNB-78      GI50  > 100 µM (inactive)

**Query** Endpoint output: GI50 of COc1ccc2c(c1)c1c3n2CCNN=C3CCC1 . Value?
**Result** > 37.7 µM (inactive)

**Query** Continue with COC1=CCC=C(C[C@@H]2NCCc3cc(OC)c(OC)cc32)C1
**Result** > 100 µM (inactive)

**Query** // next record C#CCN(C(=O)C(F)(F)F)c1ccc(C(=O)c2ccc(N(CC#C)C(=O)C(F)(F)F)cc2)cc1
**Result** 52.4 µM (inactive)

**Query** And the next one, CCC(C)(O)c1cn(-c2cccc(S(=O)(=O)O)c2)nn1 (stereo unspecified) ?
**Result** > 100 µM (inactive)

**Query** Continue with CC(C)C(=O)CC(c1ccc(Cl)cc1)N1N=C(C(C)C)CC1c1ccc(Cl)cc1 (stereo unspecified)
**Result** 5.97 µM (inactive)

**Query** Then CCO/C=C1\N=C(c2ccccc2Br)OC1=O ?
**Result** > 100 µM (inactive)

**Query** Can you check O=[As](O)(O)c1cc(/N=N/c2ccc(-c3ccc(/N=N/c4cc([As](=O)(O)O)c(O)cc4O)cc3)cc2)c(O)cc1O next?
**Result** > 100 µM (inactive)

**Query** Same again, this time with CC(C)(C)c1ccc(OC2CCO2)cc1 (stereo unspecified)
**Result** 49.9 µM (inactive)
